study-system: Env of HIV-1 strain 3365.v2.c20 (HIV-1)
assay-text: cell-based or functional assay
measured-endpoint: neutralization IC50

# lookup: neutralization IC50 of γ22κ11 (antibody, V domains shown) VH: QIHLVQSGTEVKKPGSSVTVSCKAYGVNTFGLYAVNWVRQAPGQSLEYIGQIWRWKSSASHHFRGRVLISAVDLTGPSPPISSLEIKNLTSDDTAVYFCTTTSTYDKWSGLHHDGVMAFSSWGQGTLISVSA VL: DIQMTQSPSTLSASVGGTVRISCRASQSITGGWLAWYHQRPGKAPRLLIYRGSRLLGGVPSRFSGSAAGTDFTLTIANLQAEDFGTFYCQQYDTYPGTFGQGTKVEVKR > 15 µg/mL
